Cited source for all entries: PubChem BioAssay (NCI)

system: HT29 colon; assay: NCI-60 one-dose screen, 48 h (100 = growth as untreated, 0 = no growth, -100 = all killed); conditions: 10 µM unless noted
About 83,000 compounds went through this panel and 20% of them were active in at least one assay; those are over-represented in the sample as a whole.
Measured Attribute: growth (%)
Report only the number, with the unit % understood.

Sample answers from the record:
N#Cc1c(Nc2cccc(Cl)c2)sc(C(=O)c2cc3cc(Cl)ccc3o2)c1N: 80.5
O=C(Nc1ccc(I)cc1F)c1cc(I)ccc1O: 78.7

Any idea what its growth is? The molecule is CN1C(=C2C(=O)OC(C)(C)OC2=O)CCC1C(=O)NCc1ccc(Cl)cc1Cl (stereo not drawn)
79.5
